Test system: A2780
assayComment: Cytotoxicity against human A2780 cells by sulforhodamine B assay
Assay type: functional, cell-based
# IC50 per entry
measuredMetric: IC50 (nM)

[[record]]
smilesstr = "COc1cc2c(cc1OCCCOc1ccc(OCCCOc3cc4c(cc3OC)C(=O)N3CCC[C@H]3C=N4)c3c1C(=O)c1ccccc1C3=O)N=C[C@@H]1CCCN1C2=O"
measuredmetric = "IC50"
reportedresult = 600

[[record]]
smilesstr = "COc1cc2c(cc1OCCCCC(=O)Nc1cccc3c1C(=O)c1ccccc1C3=O)N=C[C@@H]1CCCN1C2=O"
measuredmetric = "IC50"
reportedresult = 500

[[record]]
smilesstr = "COc1cc2c(cc1OCCCC(=O)Nc1cccc3c1C(=O)c1ccccc1C3=O)N=C[C@@H]1CCCN1C2=O"
measuredmetric = "IC50"
reportedresult = 500


Data credit: ChEMBL document CHEMBL1137474
